Assay: Stability in human plasma assessed as intact peptide measured after 2 hr at 37 degC by RP-HPLC analysis
Format: ADME, cell-free
Conditions: read-out: Stability
observed-property: remaining at 2 h (%)

query-smiles	readout-unit	remaining at 2 h
CC(C)C[C@H](NC(=O)[C@H](CCCNC(=N)NC(=O)NCCCCN)NC(=O)[C@H](Cc1c[nH]c2ccccc12)NC(=O)[C@H](CCCNC(=N)N)NC(=O)CCC(=O)O)C(=O)N[C@@H](CCCNC(=N)N)C(=O)N[C@@H](Cc1ccc(O)cc1)C(N)=O	%	87
CC(C)C[C@H](NC(=O)[C@H](CCCNC(=N)NC(=O)NCCCCN)NC(=O)[C@H](Cc1ccc(O)cc1)NC(=O)[C@H](CCCNC(=N)N)NC(=O)CCC(=O)O)C(=O)N[C@@H](CCCNC(=N)N)C(=O)N[C@@H](Cc1ccc(O)cc1)C(N)=O	%	91

----------
Biological target: Neuropeptide Y receptor type 2 (Homo sapiens, UniProt P49146)
Sequence (P49146 whole entry): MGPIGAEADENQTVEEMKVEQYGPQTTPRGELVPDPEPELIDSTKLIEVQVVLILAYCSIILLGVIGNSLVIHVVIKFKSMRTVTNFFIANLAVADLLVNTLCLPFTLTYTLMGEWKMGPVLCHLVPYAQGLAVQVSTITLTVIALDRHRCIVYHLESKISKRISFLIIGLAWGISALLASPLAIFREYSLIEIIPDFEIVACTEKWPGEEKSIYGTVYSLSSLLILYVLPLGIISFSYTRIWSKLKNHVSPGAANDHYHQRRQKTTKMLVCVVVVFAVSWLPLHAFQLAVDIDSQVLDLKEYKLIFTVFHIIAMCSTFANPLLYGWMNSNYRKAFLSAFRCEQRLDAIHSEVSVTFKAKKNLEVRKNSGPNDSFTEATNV
Assay: Displacement of [3H]UR-MK299 from human neuropeptide Y Y2 receptor expressed in CHO cells measured after 90 mins by scintillation counting analysis
Type: cell-based
Conditions: read-out: pKi (converted)
The entries below come with measured Ki values attached.

query-smiles	Ki
CC(C)C[C@H](NC(=O)[C@@H]1CCCNC(=N)NC(=O)NCCCCNC(=O)CCC(=O)N[C@@H](CCCNC(=N)N)C(=O)N[C@@H](Cc2ccc(O)cc2)C(=O)N1)C(=O)N[C@@H](CCCNC(=N)N)C(=O)N[C@@H](Cc1ccc(O)cc1)C(N)=O	> 10 µM

# next compound below
Prompt: Please give the documented Ki of CC(C)C[C@H](NC(=O)[C@H](CCCNC(=N)NC(=O)NCCCCN)NC(=O)[C@H](Cc1ccc(O)cc1)NC(=O)[C@H](CCCNC(=N)N)NC(=O)CCC(=O)O)C(=O)N[C@@H](CCCNC(=N)N)C(=O)N[C@@H](Cc1ccc(O)cc1)C(N)=O
Completion: > 10 µM

----------
Target: Neuropeptide Y receptor type 1 (Homo sapiens)
Test: Displacement of [3H]UR-MK299 from human neuropeptide Y Y1 receptor in human SK-N-MC cells measured after 90 mins by scintillation counting analysis
Format: cell-based
Conditions: read-out: pKi (converted)
Residues, ends and D or L forms follow the SMILES beside them.
observed-property: Ki

// worked examples, Ki included
compound	Ki
CC(C)C[C@H](NC(=O)[C@@H]1CCCNC(=N)NC(=O)NCCCCNC(=O)CCC(=O)N[C@@H](CCCNC(=N)N)C(=O)N[C@@H](Cc2ccc(O)cc2)C(=O)N1)C(=O)N[C@@H](CCCNC(=N)N)C(=O)N[C@@H](Cc1ccc(O)cc1)C(N)=O	> 3.16 µM
CC(C)C[C@H](NC(=O)[C@H](CCCNC(=N)NC(=O)NCCCN)NC(=O)[C@H](Cc1ccc(O)cc1)NC(=O)[C@H](CCCNC(=N)N)NC(=O)CCC(=O)O)C(=O)N[C@@H](CCCNC(=N)N)C(=O)N[C@@H](Cc1ccc(O)cc1)C(N)=O	> 10 µM
CC(C)C[C@H](NC(=O)[C@@H]1CCCNC(=N)NC(=O)NCCCCNC(=O)CCC(=O)N[C@@H](CCCCN)C(=O)N[C@@H](Cc2ccc(O)cc2)C(=O)N1)C(=O)N[C@@H](CCCNC(=N)N)C(=O)N[C@@H](Cc1ccc(O)cc1)C(N)=O (HELM PEPTIDE1{K.Y.[N=C(NCCC[C@H](N[*:1])C(=O)[*:2])N[*:3]].L.R.Y.[am]}|CHEM1{[O=C(CCC(=O)[*:1])NCCCCNC(=O)[*:2]]}$PEPTIDE1,CHEM1,1:R1-1:R1|PEPTIDE1,CHEM1,3:R3-1:R2$$$V2.0)	> 3.16 µM
N=C(N)NCCC[C@@H]1NC(=O)CCC(=O)NCCCNC(=O)NC(=N)NCCC[C@@H](C(=O)N[C@@H](Cc2c[nH]c3ccccc23)C(=O)N[C@@H](CCCNC(=N)N)C(=O)N[C@@H](Cc2ccc(O)cc2)C(N)=O)NC(=O)[C@H](Cc2ccc(O)cc2)NC1=O (HELM PEPTIDE1{R.Y.[N=C(NCCC[C@H](N[*:1])C(=O)[*:2])N[*:3]].W.R.Y.[am]}|CHEM1{[O=C(CCC(=O)[*:1])NCCCNC(=O)[*:2]]}$PEPTIDE1,CHEM1,1:R1-1:R1|PEPTIDE1,CHEM1,3:R3-1:R2$$$V2.0)	> 10 µM

Prompt: Please give the documented Ki of CC(C)C[C@H](NC(=O)[C@@H]1CCCNC(=N)NC(=O)NCCCCNC(=O)CCC(=O)N[C@@H](CCCNC(=N)N)C(=O)N1)C(=O)N[C@@H](CCCNC(=N)N)C(=O)N[C@@H](Cc1ccc(O)cc1)C(N)=O (HELM PEPTIDE1{R.[N=C(NCCC[C@H](N[*:1])C(=O)[*:2])N[*:3]].L.R.Y.[am]}|CHEM1{[O=C(CCC(=O)[*:1])NCCCCNC(=O)[*:2]]}$PEPTIDE1,CHEM1,1:R1-1:R1|PEPTIDE1,CHEM1,2:R3-1:R2$$$V2.0)
Completion: > 3.16 µM

Prompt: Please give the documented Ki of CC(C)C[C@H](NC(=O)[C@H](CCCNC(=N)NC(=O)NCCCCN)NC(=O)[C@H](Cc1ccc(O)cc1)NC(=O)[C@H](CCCNC(=N)N)NC(=O)CCC(=O)O)C(=O)N[C@@H](CCCNC(=N)N)C(=O)N[C@@H](Cc1ccc(O)cc1)C(N)=O
Completion: > 10 µM

----------
Biological target: UniProt:Q15761
Sequence (Q15761 whole entry): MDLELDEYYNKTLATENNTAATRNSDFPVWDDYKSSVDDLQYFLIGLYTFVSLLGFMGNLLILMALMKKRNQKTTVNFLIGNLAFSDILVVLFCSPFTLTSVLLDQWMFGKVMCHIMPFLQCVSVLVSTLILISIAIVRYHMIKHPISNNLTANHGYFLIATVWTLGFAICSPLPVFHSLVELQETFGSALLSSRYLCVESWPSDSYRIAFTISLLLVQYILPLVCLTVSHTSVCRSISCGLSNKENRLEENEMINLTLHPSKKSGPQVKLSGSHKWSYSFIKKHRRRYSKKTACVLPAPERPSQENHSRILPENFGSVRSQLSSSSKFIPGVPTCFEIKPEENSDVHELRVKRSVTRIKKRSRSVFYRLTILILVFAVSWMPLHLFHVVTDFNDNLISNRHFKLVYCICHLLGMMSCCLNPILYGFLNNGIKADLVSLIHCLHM
Assay: Displacement of [3H]propionyl-pNPY from human neuropeptide Y Y5 receptor in human HEC-1B cells measured after 90 mins by scintillation counting analysis
Format: cell-based, HEC-1B cell line
Settings: read-out: pKi (converted)
Residues, ends and D or L forms follow the SMILES beside them.
observed-property: Ki

// worked examples, Ki included
compound	Ki
CC(C)C[C@H](NC(=O)[C@@H]1CCC(=O)NCC(=O)N[C@H](CCCNC(=N)N)C(=O)N[C@@H](CCCNC(=N)N)C(=O)N1)C(=O)N[C@@H](CCCNC(=N)N)C(=O)N[C@@H](Cc1ccc(O)cc1)C(N)=O	> 3.16 µM
CC(C)C[C@H](NC(=O)[C@@H]1CCCNC(=N)NC(=O)NCCCCNC(=O)CCC(=O)N[C@@H](CCCNC(=N)N)C(=O)N1)C(=O)N[C@@H](CCCNC(=N)N)C(=O)N[C@@H](Cc1ccc(O)cc1)C(N)=O (HELM PEPTIDE1{R.[N=C(NCCC[C@H](N[*:1])C(=O)[*:2])N[*:3]].L.R.Y.[am]}|CHEM1{[O=C(CCC(=O)[*:1])NCCCCNC(=O)[*:2]]}$PEPTIDE1,CHEM1,1:R1-1:R1|PEPTIDE1,CHEM1,2:R3-1:R2$$$V2.0)	> 1000 µM

# next compound below
Prompt: Please give the documented Ki of CC(C)C[C@H](NC(=O)[C@H](CCCNC(=N)NC(=O)NCCCCN)NC(=O)[C@H](Cc1ccc(O)cc1)NC(=O)[C@H](CCCNC(=N)N)NC(=O)CCC(=O)O)C(=O)N[C@@H](CCCNC(=N)N)C(=O)N[C@@H](Cc1ccc(O)cc1)C(N)=O
Completion: > 10 µM

----------
Target: Neuropeptide Y receptor type 1 (Homo sapiens)
Sequence (P25929 whole entry): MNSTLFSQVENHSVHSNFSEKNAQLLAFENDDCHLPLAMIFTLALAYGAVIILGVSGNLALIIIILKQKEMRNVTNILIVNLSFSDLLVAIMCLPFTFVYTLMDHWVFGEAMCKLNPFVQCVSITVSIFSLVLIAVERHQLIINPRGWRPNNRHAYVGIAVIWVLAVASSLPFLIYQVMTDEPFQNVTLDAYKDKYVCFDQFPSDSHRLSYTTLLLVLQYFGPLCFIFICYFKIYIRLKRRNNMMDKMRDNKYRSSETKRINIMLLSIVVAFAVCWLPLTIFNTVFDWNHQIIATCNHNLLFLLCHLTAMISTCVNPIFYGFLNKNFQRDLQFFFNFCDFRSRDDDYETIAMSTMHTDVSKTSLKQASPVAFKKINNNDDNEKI
Experiment: Displacement of [3H]UR-MK299 from human neuropeptide Y Y1 receptor in human SK-N-MC cells measured after 90 mins by scintillation counting analysis
Assay type: cell-based
Conditions: read-out: pKi (converted)
Starred links: 1 amine or outer side, 2 acyl side, 3 side chain; linkers in the order of their positions; H or OH if unused. Residues, ends and D or L forms follow the SMILES beside them. Groups on a side chain read outwards from the residue. *: point of attachment. Suc = O=C(CCC(=O)[*:2])[*:1]; NH(CH2)4NH2 = NCCCCN*; CO = O=C([*:1])[*:2]; NH(CH2)3NH2 = NCCCN*
observed-property: Ki

compound	observed-property	measured-value
CC(C)C[C@H](NC(=O)[C@@H]1CCCNC(=N)NC(=O)NCCCNC(=O)CCC(=O)N[C@@H](CCCNC(=N)N)C(=O)N[C@@H](Cc2ccc(O)cc2)C(=O)N1)C(=O)N[C@@H](CCCNC(=N)N)C(=O)N[C@@H](Cc1ccc(O)cc1)C(N)=O	Ki	> 10 µM

Prompt: Please give the documented Ki of N=C(N)NCCC[C@H](NC(=O)CCC(=O)O)C(=O)N[C@@H](Cc1ccc(O)cc1)C(=O)N[C@@H](CCCNC(=N)NC(=O)NCCCCN)C(=O)N[C@@H](Cc1c[nH]c2ccccc12)C(=O)N[C@@H](CCCNC(=N)N)C(=O)N[C@@H](Cc1ccc(O)cc1)C(N)=O (single isomer, unassigned)
Completion: > 3.16 µM

Prompt: Please give the documented Ki of CC(C)C[C@H](NC(=O)[C@H](CCCNC(=N)NC(=O)NCCCCN)NC(=O)[C@H](Cc1ccc(O)cc1)NC(=O)[C@H](CCCCN)NC(=O)CCC(=O)O)C(=O)N[C@@H](CCCNC(=N)N)C(=O)N[C@@H](Cc1ccc(O)cc1)C(N)=O (Suc-KYR([CO-NH(CH2)4NH2])LRY-NH2)
Completion: > 10 µM

Prompt: Please give the documented Ki of N=C(N)NCCC[C@@H]1NC(=O)CCC(=O)NCCCCNC(=O)NC(=N)NCCC[C@@H](C(=O)N[C@@H](Cc2c[nH]c3ccccc23)C(=O)N[C@@H](CCCNC(=N)N)C(=O)N[C@@H](Cc2ccc(O)cc2)C(N)=O)NC(=O)[C@H](Cc2ccc(O)cc2)NC1=O (HELM PEPTIDE1{R.Y.[N=C(NCCC[C@H](N[*:1])C(=O)[*:2])N[*:3]].W.R.Y.[am]}|CHEM1{[O=C(CCC(=O)[*:1])NCCCCNC(=O)[*:2]]}$PEPTIDE1,CHEM1,1:R1-1:R1|PEPTIDE1,CHEM1,3:R3-1:R2$$$V2.0)
Completion: > 10 µM

Prompt: Please give the documented Ki of N=C(N)NCCC[C@H](NC(=O)CCC(=O)O)C(=O)N[C@@H](Cc1ccc(O)cc1)C(=O)N[C@@H](CCCNC(=N)NC(=O)NCCCN)C(=O)N[C@@H](Cc1c[nH]c2ccccc12)C(=O)N[C@@H](CCCNC(=N)N)C(=O)N[C@@H](Cc1ccc(O)cc1)C(N)=O (Suc-RYR([CO-NH(CH2)3NH2])WRY-NH2)
Completion: > 10 µM

Prompt: Please give the documented Ki of CC(=O)N[C@@H](CCCNC(=N)N)C(=O)N[C@@H](Cc1ccc(O)cc1)C(=O)N[C@@H](CCCNC(=N)N)C(=O)N[C@@H](CC(C)C)C(=O)N[C@@H](CCCNC(=N)N)C(=O)N[C@@H](Cc1ccc(O)cc1)C(N)=O
Completion: > 3.16 µM

Prompt: Please give the documented Ki of CC(C)C[C@H](NC(=O)[C@H](CCCNC(=N)N)NC(=O)[C@@H]1CCC(=O)N[C@@H](CCCNC(=N)N)C(=O)NCC(=O)N[C@@H](Cc2ccc(O)cc2)C(=O)N1)C(=O)N[C@@H](CCCNC(=N)N)C(=O)N[C@@H](Cc1ccc(O)cc1)C(N)=O (HELM PEPTIDE1{R.G.Y.E.R.L.R.Y.[am]}$PEPTIDE1,PEPTIDE1,1:R1-4:R3$$$V2.0)
Completion: 0.457 µM
